meta.source: ChEMBL document CHEMBL5357022

protocol: Unbound volume of distribution in Beagle dog at 1 mg/kg, po in 30% captisol formulation or 0.5 mg/kg, iv measured after 24 hrs
Assay type: ADME, organism-based, Canis lupus familiaris
conditions: in vivo
endpoint: Vdu (L/kg)

Solved cases (2 shown):
item smiles: Cc1nnc(-c2ccc(-c3cc(F)cc4c3C(=O)N([C@H](C3CC3)C(C)(C)O)C4)cc2)o1
quantitative readout: 12
//
item smiles: Cc1nnc(-c2ccc(-c3cc(F)c(F)c4c3C(=O)N([C@H](C3CC3)C(C)(C)O)C4)cc2)o1
quantitative readout: 17

A = Cc1nnc(-c2ccc(-c3c(F)c(F)cc4c3C(=O)N([C@@H](C(C)(C)O)C(F)(F)F)C4)cc2)o1
B = Cc1nnc(-c2ccc(-c3c(F)c(F)cc4c3C(=O)N([C@H](C3CC3)C(C)(C)O)C4)cc2)o1
Choose between A and B : whose measured Vdu value is numerically larger? Give the label under which the chosen entry appears.
A
(A: 14 L/kg, B: 7.1 L/kg)
